Origin of measurements: PubChem BioAssay (NCI)

Recorded TGI, one value per entry.
tested on: UACC-62 melanoma; assay: NCI tumour cell line growth inhibition, 48 h

// known answers, use as guide
>>> df
                                   compound       test_system  recorded_measurement
0  O=c1ccn(/C=C/C(O)C(O)CO)c(=O)[nH]1 (stereo not drawn)  UACC-62 melanoma              > 100 µM
1            Cc1nc(N(C(C)C)C(C)C)c(C(C)C)o1  UACC-62 melanoma              > 100 µM
2  CSC(=N)N1N=C2/C(=C/c3ccccc3)CCC[C@H]2[C@H]1c1ccccc1  UACC-62 melanoma               23.9 µM
3       Cn1c(C(=O)c2cccc3ccccc23)nc2ccccc21  UACC-62 melanoma              > 100 µM
4  COC(=O)CCC(NC(=S)N/N=C(\C)c1cnccn1)C(=O)OC (stereo not drawn)  UACC-62 melanoma               90.2 µM
5             c1ccc(-c2csc3ncn4cnnc4c23)cc1  UACC-62 melanoma              > 100 µM
6  C=CC(=O)N[C@@H](/C=C/C(=O)OCC)Cc1ccc(-c2cc(Cl)cc(Cl)c2)cc1  UACC-62 melanoma               25.2 µM
7     Nc1nc(C(=O)O)c(N=Nc2ccccc2)c(=O)[nH]1  UACC-62 melanoma              > 100 µM
8    Cc1ccc(NC(=O)/C(C#N)=C/c2ccccc2)c(C)c1  UACC-62 melanoma              > 100 µM
9  Cc1ccc(/N=N/C(=NNC(=O)c2ccc(C)cc2)c2ccc(N(C)C)cc2)cc1  UACC-62 melanoma               23.4 µM

Query: Please look at this compound and report its TGI: CCOC(=O)C(CCCNC(=O)OC(C)(C)C)N(Cc1ccc(OC)cc1OC)C(=O)CC(=O)CP(=O)(OCC)OCC (stereo not drawn)
Result: > 100 µM

Query: Please look at this compound and report its TGI: c1ccc(C2CCCCC2)c(OCCCCCN2CCNCC2)c1
Result: 3.62 µM

Query: Please look at this compound and report its TGI: Nc1nc2ncn(CC(O)CO)c2c(=O)[nH]1 (stereo not drawn)
Result: > 100 µM
